biological target: D2 (dopamine autoreceptor) (Rattus norvegicus, UniProt P61169); construct: homogenized rat striatal brain tissue; from tissue; host or cells: rat striatal brain tissue (homogenate); experiment: Affinity for dopamine autoreceptor (D2 high-affinity agonist state), 3H-quinpirole binding, rat striatal brain tissue; details: read-out: IC50 (nM) D2 Quin.
Sequence (P61169 whole entry): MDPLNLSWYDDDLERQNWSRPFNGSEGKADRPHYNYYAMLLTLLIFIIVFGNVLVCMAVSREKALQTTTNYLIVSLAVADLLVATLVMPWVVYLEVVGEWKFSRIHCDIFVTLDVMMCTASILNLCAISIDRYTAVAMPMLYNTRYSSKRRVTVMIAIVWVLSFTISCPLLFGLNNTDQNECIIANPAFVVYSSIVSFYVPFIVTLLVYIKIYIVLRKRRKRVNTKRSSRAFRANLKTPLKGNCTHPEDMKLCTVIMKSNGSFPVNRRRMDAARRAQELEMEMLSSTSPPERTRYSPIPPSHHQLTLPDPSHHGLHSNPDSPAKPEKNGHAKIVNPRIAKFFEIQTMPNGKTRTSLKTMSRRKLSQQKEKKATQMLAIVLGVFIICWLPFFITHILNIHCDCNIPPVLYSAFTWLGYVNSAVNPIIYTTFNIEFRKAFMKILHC
List of log10 of IC50 values.
readout type: log10 of IC50 (log10 of the value in nM)

>>> recorded_number("O=c1[nH]c2cccc(OCCNCc3cccc4ccccc34)c2[nH]1")
-0.22
>>> recorded_number("O=c1[nH]c2cccc(OCCNCc3cccs3)c2[nH]1")
-0.29
>>> recorded_number("O=c1[nH]c2cc(Cl)cc(OCCNCc3ccccc3)c2[nH]1")
-0.32
>>> recorded_number("O=c1[nH]c2cccc(OCCNCCCc3ccccc3)c2[nH]1")
-0.52
>>> recorded_number("O=c1[nH]c2cccc(OCCCNCc3ccccc3)c2[nH]1")
2.10
>>> recorded_number("O=c1[nH]c2cccc(OCCNCc3ccccc3)c2[nH]1")
-0.29
>>> recorded_number("CC(C)(C)c1ccc(CNCCOc2cccc3[nH]c(=O)[nH]c23)cc1")
-0.09
>>> recorded_number("O=c1[nH]c2cc(Cl)cc(OCCNCc3cccs3)c2[nH]1")
-0.33
>>> recorded_number("O=c1[nH]c2cccc(OCCN3CCc4ccccc4C3)c2[nH]1")
1.08
>>> recorded_number("Cc1ccc(CNCCOc2cccc3[nH]c(=O)[nH]c23)cc1")
-0.54
>>> recorded_number("O=c1[nH]c2cccc(OCCNCc3ccc(Cl)cc3)c2[nH]1")
-0.52
>>> recorded_number("O=c1[nH]c2cc(Cl)cc(OCCNCc3ccsc3)c2[nH]1")
-0.51
>>> recorded_number("Cn1c(=O)[nH]c2cccc(OCCNCc3ccccc3)c21")
0.47

---

molecular target: dopamine D-2 receptor (Rattus norvegicus, UniProt P61169); construct: homogenized limbic brain tissue; from tissue; host or cells: limbic brain tissue (homogenate); assay: Affinity for dopamine D-2 receptor, 3H-spiroperidol (Spiper.) binding, homogenized limbic brain tissue; conditions: read-out: IC50 (nM) D2 Spiper
List of IC50 values.
readout type: IC50 (nM)

>>> recorded_number("O=c1[nH]c2cc(Cl)cc(OCCNCc3ccccc3)c2[nH]1")
34.6
>>> recorded_number("O=c1[nH]c2cccc(OCCNCc3cccc4ccccc34)c2[nH]1")
38.7
>>> recorded_number("O=c1[nH]c2cccc(OCCNCCCc3ccccc3)c2[nH]1")
30
>>> recorded_number("O=c1[nH]c2cccc(OCCNCc3ccc(Cl)cc3)c2[nH]1")
99.5
>>> recorded_number("O=c1[nH]c2cccc(OCCNCc3cccs3)c2[nH]1")
255
>>> recorded_number("O=c1[nH]c2cccc(OCCN3CCc4ccccc4C3)c2[nH]1")
658
>>> recorded_number("O=c1[nH]c2cccc(OCCNCc3ccccc3)c2[nH]1")
60.6
>>> recorded_number("Cc1ccc(CNCCOc2cccc3[nH]c(=O)[nH]c23)cc1")
28.5
>>> recorded_number("O=c1[nH]c2cc(Cl)cc(OCCNCc3cccs3)c2[nH]1")
58
>>> recorded_number("O=c1[nH]c2cccc(OCCCNCc3ccccc3)c2[nH]1")
5980

---

List of IC50 values.
biological target: dopamine D-2 receptor (Rattus norvegicus); construct: homogenized limbic brain tissue; from tissue; host or cells: limbic brain tissue (homogenate); assay: Affinity for dopamine D-2 receptor, 3H-spiroperidol (Spiper.) binding, homogenized limbic brain tissue; conditions: read-out: IC50 (nM) D2 Spiper
readout type: IC50 (nM)

>>> recorded_number("O=c1[nH]c2cc(Cl)cc(OCCNCc3ccsc3)c2[nH]1")
67
>>> recorded_number("Cn1c(=O)[nH]c2cccc(OCCNCc3ccccc3)c21")
1350
>>> recorded_number("CC(C)(C)c1ccc(CNCCOc2cccc3[nH]c(=O)[nH]c23)cc1")
47.8
